- studySystem: UniProt Q8ILY1
- Sequence (Q8ILY1 entry or part of it): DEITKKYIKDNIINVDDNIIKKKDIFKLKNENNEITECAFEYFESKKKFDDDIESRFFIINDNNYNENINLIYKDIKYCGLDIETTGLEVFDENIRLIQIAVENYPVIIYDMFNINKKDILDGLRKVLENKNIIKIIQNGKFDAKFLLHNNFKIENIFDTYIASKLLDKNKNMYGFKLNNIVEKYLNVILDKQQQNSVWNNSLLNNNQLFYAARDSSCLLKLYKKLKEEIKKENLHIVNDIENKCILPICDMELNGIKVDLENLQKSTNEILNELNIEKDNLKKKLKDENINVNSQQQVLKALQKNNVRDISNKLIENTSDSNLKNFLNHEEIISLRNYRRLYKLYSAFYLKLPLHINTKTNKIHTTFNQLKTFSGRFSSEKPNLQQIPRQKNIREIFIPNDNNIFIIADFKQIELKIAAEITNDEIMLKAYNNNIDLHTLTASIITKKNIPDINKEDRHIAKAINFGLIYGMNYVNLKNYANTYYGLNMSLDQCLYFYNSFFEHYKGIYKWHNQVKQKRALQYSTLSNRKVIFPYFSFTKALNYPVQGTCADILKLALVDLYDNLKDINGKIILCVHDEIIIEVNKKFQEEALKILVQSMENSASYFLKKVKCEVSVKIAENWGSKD
- testDescription: Fluorescence-based high-throughput DNA polymerase assay (molecular beacon), primary screen and dose-response;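 further: test concentration in µM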
- Format: biochemical
- reportedConditions: DRC-2; 90'; concentration 40
Kindly state % inhibition ApPOL 90' for each of the entries shown.
Your answer is read as %, so omit the unit and give the number.

% inhibition ApPOL 90' reading for O=C(c1c[nH]c2ncccc12)N1CCCC1 [Molecule 63, O=C(c1c[nH]c2c1cccn2)N1CCCC1] : 66

In plain terms, O=C(O)c1ccc(-c2nc3cc(-c4ccc5nc(-c6ccc(C(=O)O)cc6)[nH]c5c4)ccc3[nH]2)cc1 has a documented % inhibition ApPOL 90' of 53

For NC(=O)c1cc[n+](CC2=C(C(=O)[O-])N3C(=O)[C@@H](NC(=O)[C@@H](c4ccccc4)S(=O)(=O)[O-])[C@H]3SC2)cc1.[Na+] the compound record lists % inhibition ApPOL 90' as 81

% inhibition ApPOL 90' measured on O=[N+]([O-])/C=C/c1ccc(-c2ccc(Br)cc2)o1 = 60

// CCC(C)NC(=O)c1cc(NC(C)=O)cc2nc(C)ccc12 (stereo not shown) : % inhibition ApPOL 90' value = 57

Lab note: O=C(CCc1csc(NC(=O)Nc2ccccc2)n1)Nc1nc2ccccc2s1 gave % inhibition ApPOL 90' of 53

Short answer for Cc1ccc(CCNC(=O)c2cnn3c(O)c(Cc4ccccc4F)c(C)nc23)cc1 : % inhibition ApPOL 90' was 67
